details: buffer; pH 7.4; 200.0 µM
Endpoint: solubility kinetic (µg/mL)
The reply should be a number in µg/mL, with the unit left off.

Problem: For the compound shown here, CC(=O)N(/C=C1\SC(=S)N(c2ccccc2)C1=O)c1ccccc1 , give the reported solubility kinetic.
Result: 10

Problem: Record: CCOC(=O)Cc1csc(NC(=O)Cc2ccc(Cl)cc2)n1
Result: 5.5

Problem: Request: O=C(Nc1cccc(F)c1)NC1CCCc2ccccc21 (configuration not stated)
Result: 2.1

Problem: Then this compound: CC1CCN(CC(O)Cn2c3ccccc3c3ccccc32)CC1 (configuration not stated)
Result: 38.7

Problem: // query: CC(C)CC(C(=O)N1CCOCC1)N1Cc2ccccc2C1=O (configuration not stated)
Result: 47.3

Problem: Item: CN1CCN(C(=O)CSc2nc3c(c(=O)n(C)c(=O)n3C)n2C)CC1
Result: 48.1

Problem: Request: CC1CCc2c(C(=O)NCc3ccco3)csc2C1 (configuration not stated)
Result: 34.9

Problem: Request: O=C(CN1CC=C(c2ccccc2)CC1)NC(=O)NC1CCCCC1
Result: 22.1

Problem: Would you kindly repeat that for Nc1cc(N)nc(SCc2cccc(F)c2)n1 ?
Result: 24.9

====

conditions: buffer; pH 7.4; 200.0 µM
For each of the compounds below, state its solubility kinetic.
State just the number; it will be interpreted in µg/mL.

Problem: For Cc1c(-c2nc(-c3cccnc3)no2)cccc1[N+](=O)[O-] , what is its reported solubility kinetic?
Result: 2

Problem: Follow-up entry: CCN(CC)C(=O)c1c(-c2ccccc2)oc2ccc(O)cc12
Result: 31.8

Problem: What do we get for COC(=O)c1sccc1-n1cccc1C(=O)C(=O)N1CCOCC1 ?
Result: 46.3

Problem: Cool, now CCc1nonc1NC(=O)c1oc2cc(C)c(Cl)cc2c1C
Result: 0.5

Problem: And then O=C(Nc1cccnc1)c1cc(-c2ccccc2O)on1 , what is it?
Result: 1.3

Problem: How about this compound: Cc1ccc(Cn2c(N)nc3ccccc32)cc1
Result: 23.8

Problem: Now the same for CN(CC(=O)Nc1c(Cl)cccc1Cl)C(=O)CCC1CCCC1
Result: 53.4

Problem: One more compound: CC(CCc1ccccc1)NCC(O)COc1ccccc1 (stereo not given)
Result: 43.1

Problem: Now the compound CCc1noc(C)c1C(=O)OCC(=O)c1ccc(NC(C)=O)cc1F
Result: 9.1

Problem: Can you check CCCCOC(=O)c1ccc(NC(=O)C(=O)NCCN(CC)CC)cc1 next?
Result: 44.3

Problem: Here is the next compound: O=C(COC(=O)c1ccccc1O)NC12CC3CC(CC(C3)C1)C2
Result: 14.5

Problem: Next compound up: N#CCOC(=O)c1c2c(nc3ccccc13)CCC2
Result: 30.1

====

details: buffer; pH 7.4; 200.0 µM
Classification by solubility kinetic | ranges: range A: < 20 µg/mL; range B: ≥ 20 µg/mL and < 40 µg/mL; range C: ≥ 40 µg/mL

Problem: In plain terms, what class is O=C(Cc1cccc2ccccc12)NCCOc1ccccc1F ?
Result: range A

Problem: What about Cc1ccc2oc(C(=O)NCC3CCOCC3)c(C)c2c1 ?
Result: range C

Problem: Another compound to check: CC(=O)N1CCN(CC(O)Cn2c3ccccc3c3ccccc32)CC1 (stereo not given)
Result: range C

Problem: Please answer likewise for COc1ccc(C(=O)COc2ccccc2C(N)=O)cc1
Result: range B

Problem: And what about the compound CN(C)CCCN1C(=O)c2cc3ccccc3cc2C1=O ?
Result: range B

Problem: Ok, now CCN(CC)c1ccc(C(=O)OCC(=O)Nc2ncccn2)cc1
Result: range A

Problem: Field entry: CC(C)OC(=O)CC1C(=O)NCCN1C(=O)COc1ccc(C(C)(C)C)cc1 (stereo not given)
Result: range C

Problem: Try CCOC(=O)C1CCCN(CC(O)COCc2ccccc2OC)C1 (stereo not given) next.
Result: range C

Problem: Try this compound too: Cc1cc(C)c(SCCc2ccncc2)c(C)c1
Result: range A

Problem: Try this compound too: Cc1ccc(OCC(=O)NCCNC(=O)c2cnccn2)cc1C
Result: range C

Problem: # iterate: COc1cccc(C(=O)Nc2ccc(Oc3cccc(C(F)(F)F)c3)nc2)c1
Result: range A

Problem: One more compound: C/C=C/c1ccc(OCC(=O)Nc2ccncc2)c(OC)c1
Result: range C

Problem: Next record, please: O=C(CSc1ccc(Cl)cc1)Nc1ccc(C2SCCS2)cc1
Result: range A

Problem: Further, for CCCCOc1ccc(-c2c(C#N)c(N)[nH]c(=S)c2C#N)cc1 ?
Result: range B

Problem: What do you get for CCOC(=O)N1CCN(Cc2cc(Cl)c3cccnc3c2O)CC1 ?
Result: range C

Problem: Check CC1(C(=O)NCc2ccc(F)cc2)Oc2ccccc2NC1=O (stereo not given) too.
Result: range C

Problem: Then this compound: CC(NC(=O)NC(=O)c1ccc(F)cc1)C1CC1 (stereo not given)
Result: range A

Problem: And then CN(C)/C=C/C(=O)c1ccc2noc(-c3cccc(F)c3)c2c1 , what is it?
Result: range A

Problem: Same thing, different compound: NC(=O)c1ccccc1OCC(=O)N1CCc2ccccc2C1
Result: range C

====

conditions: buffer; pH 7.4; 200.0 µM
Endpoint: solubility kinetic (µg/mL)
API: value field is a number in µg/mL; no unit string.

Problem: Returns the measured solubility kinetic for the input molecule. Input: Cc1ccc2c(c1)c1c3n2CCN(CC(N)=O)C3CCC1 (centres undefined)
Result: 1.7

Problem: Same lookup for O=C(CNC(=O)c1ccc(Cl)cc1)OCN1C(=O)c2ccccc2C1=O , please.
Result: 7.7

Problem: // repeat for N#Cc1ccccc1OCC(=O)OCC(=O)c1ccc[nH]1 and report
Result: 24.9

Problem: And for Cc1cccc(-n2c(C)cc(/C=C3\NC(=O)NC3=O)c2C)c1 ?
Result: 1.8

Problem: Request: COCCSc1ncnc2c1oc1nc3c(cc12)COC(C)(C)C3
Result: 43

Problem: Also, COc1ccc(/C=C/C(=O)N2CCCc3ccccc32)c(OC)c1 please.
Result: 6.7

Problem: // repeat for O=C(NC1CCCCC1)C(=O)c1c[nH]c2ccccc12 and report
Result: 1.1

Problem: Let us now turn to O=C(NCCCO)C(=O)Nc1cc2c3c(c1)CCC(=O)N3CCC2
Result: 48.8

Problem: Same again, this time with CCOC(=O)C1(Cc2cccc(F)c2)CCN(CC(O)CO)CC1 (centres undefined)
Result: 43.3

Problem: Proceed to CCC1CCCCN1CC(=O)c1c(C)[nH]c2cc(C)ccc12 (centres undefined)
Result: 33

Problem: Can you check Cc1ccc2c(c1)c1c3n2CCN(C=O)C3CCC1 (centres undefined) next?
Result: 28.1

Problem: Let us now turn to OC(CN1CCN(c2ccccc2Cl)CC1)c1ccccc1 (centres undefined)
Result: 41.4

Problem: Another molecule to look at: Cn1c([O-])c(Cc2cccc(Cl)c2Cl)c(=O)n(C)c1=O.[NH4+]
Result: 43.6

Problem: And for Cc1ccc2oc(/N=C(\N)NC(=O)C(C)(C)C)nc2c1 ?
Result: 1.2

====

details: buffer; pH 7.4; 200.0 µM
Endpoint: solubility kinetic (µg/mL)
Field: numeric (µg/mL). Do not append units.

Problem: May I ask what solubility kinetic has been recorded for CC1CCN(C(=O)c2ccc3ccccc3c2)CC1 ?
Result: 23.8

Problem: What do you have for CC1CC(=O)Nc2ccccc2N1C(=O)COc1ccc2ccccc2c1 (stereo not given) ?
Result: 8.8

Problem: // same read-out, input: CCc1ccccc1NC(=O)CN(C)Cc1c(O)ccc2ccccc12
Result: 22.8

Problem: What would you report for CCOc1ccc(C2NC(=S)NC3=C2CCc2ccccc23)cc1 (stereo not given) ?
Result: 10.9

Problem: Queued: CC(C)NCC#CCOc1ccc(Cl)cc1.O=C(O)C(=O)O
Result: 42.6

Problem: Next molecule: O=C(CN1CCC(C(=O)O)CC1)Nc1ccccc1Oc1ccccc1
Result: 47.5

Problem: // repeat for O=C(OCc1ccccc1)c1cnc(Cl)c(Cl)c1 and report
Result: 2.1

Problem: Same thing, different molecule: Cc1sc(NC(=O)C2=COCCO2)c(C#N)c1C
Result: 5.9

Problem: And CC(=O)Oc1ccc2nc(/C=C/c3ccccc3)oc(=O)c2c1 ?
Result: 0.9

Problem: Same again, this time with COc1ccc(NC(=O)c2ccccc2C)cc1
Result: 27.1

Problem: Also COc1ccccc1C1CCN(C(=O)c2ccc(C(C)(C)C)cc2)CC1 , if possible.
Result: 3.1

Problem: Same lookup for Cc1ccccc1CC(=O)Nc1cc(C(C)(C)C)on1 , please.
Result: 36.9

Problem: Would you mind doing COc1ccc(NC2(c3ccccc3)OC(=O)c3ccccc32)cc1 (stereo not given) as well?
Result: 1.5
